Listed next: entries and their corresponding diameter of the inhibition zone (DIZ).
system: Staphylococcus aureus; assay: Antibacterial activity against methicillin-susceptible Staphylococcus aureus ATCC 25923 assessed as zone of inhibition by disc diffusion method; assay type: functional; further: test concentration or dose not given here
Quick note: give the figure in mm, leave out the unit.

CCCCSSc1ccccn1: 0

Quick note, diameter of the inhibition zone (DIZ) for `c1ccc(SSC2CCCC2)nc1` landed at 9

So, `CCCCCCCCCCSSc1ccccn1` ? Its diameter of the inhibition zone (DIZ) was 12

Data point: `CCCCCCCCSSc1ccccn1` ; diameter of the inhibition zone (DIZ) = 30

----------
system: Staphylococcus aureus; assay: Antibacterial activity against methicillin-susceptible Staphylococcus aureus ATCC 25923 assessed as zone of inhibition by disc diffusion method; format: functional; further: test concentration or dose not given here
In this section we review reported diameter of the inhibition zone (DIZ) values for a set of molecules.
Express your answer in mm, writing the number without its unit.

Please review the following examples before continuing.
c1ccc(SSC2CCCCC2)nc1: 11
c1ccc(CSSc2ccccn2)cc1: 26
O=C(O)CCSSc1ccccn1: 16
CCCCCSSc1ccccn1: 32

Now turn to the next molecule.
diameter of the inhibition zone (DIZ) recorded for this molecule, CCC(C)SSc1ccccn1 (stereo not given) , is 0
